Source: patent US12139508B2

Assay: Pharmacokinetic assay in Balb/c mice (plasma and brain tissue)
Format: in vivo
Conditions: mouse, po; plasma, 5 mg/kg p.o., male Balb/c mice; read-out: Area under curve AUC0-∞
Method: Balb/c mice were used as test animals. The pharmacokinetic behavior in mice (plasma and brain tissue) of the compounds of Examples 2, 3, 5, 6, 9, 13, 59, 60, 61, 63, 71-74, 81, 103, 130, 134, 135, 137, 138, 140, 141, 143, 145 and 146 orally administered at a dose of 5 mg/kg was studied. Each group had 24 male Balb/c mice. […] The main parameters of pharmacokinetics were calculated by WinNonlin 6.1.
readout_label: AUC(0-inf)

1) C[C@@H]1C[C@H](C(=O)Cn2ccc(C#N)n2)[C@@]2(C)CC[C@H]3[C@@H](CC[C@@H]4C[C@](C)(O)CC[C@@H]43)[C@H]12 = 1770 ng·h/mL
2) C[C@@H]1C[C@H](C(=O)Cn2ncnn2)[C@@]2(C)CC[C@H]3[C@@H](CC[C@@H]4C[C@](C)(O)CC[C@@H]43)[C@H]12 = 604 ng·h/mL
3) C[C@@H]1C[C@H](C(=O)Cn2nc(C#N)cc2C#N)[C@@]2(C)CC[C@H]3[C@@H](CC[C@@H]4C[C@](C)(O)CC[C@@H]43)[C@H]12 = 4110 ng·h/mL
4) C[C@@]1(O)CC[C@H]2[C@H](CC[C@@H]3[C@@H]2CC[C@@]2(C)[C@H]3[C@H](C3CC3)C[C@@H]2C(=O)Cn2ncnn2)C1 = 8000 ng·h/mL
5) C[C@@H]1C[C@H](C(=O)Cn2cc(C(F)(F)F)cn2)[C@@]2(C)CC[C@H]3[C@@H](CC[C@@H]4C[C@](C)(O)CC[C@@H]43)[C@H]12 = 1320 ng·h/mL

----------
experiment: Pharmacokinetic assay in Balb/c mice (plasma and brain tissue); assay type: in vivo; conditions: mouse, po; plasma, 5 mg/kg p.o., male Balb/c mice; read-out: Plasma concentration Cmax
# Cmax per entry
readout_label: Cmax (ng/mL)

1) C[C@@H]1C[C@H](C(=O)Cn2nccn2)[C@@]2(C)CC[C@H]3[C@@H](CC[C@@H]4C[C@](C)(O)CC[C@@H]43)[C@H]12 = 525
2) C[C@@H]1C[C@H](C(=O)Cn2ccc(C#N)n2)[C@@]2(C)CC[C@H]3[C@@H](CC[C@@H]4C[C@](C)(O)CC[C@@H]43)[C@H]12 = 720
3) C[C@@H]1C[C@H](C(=O)Cn2cc(C#N)cn2)[C@@]2(C)CC[C@H]3[C@@H](CC[C@@H]4C[C@](C)(O)CC[C@@H]43)[C@H]12 = 1210
4) C[C@@]1(O)CC[C@H]2[C@H](CC[C@@H]3[C@@H]2CC[C@@]2(C)[C@H]3[C@@H]3C[C@@H]3[C@@H]2C(=O)Cn2cc(C#N)cn2)C1 = 1100

----------
AUC(0-t) values, listed per item
assay: Pharmacokinetic assay in Balb/c mice (plasma and brain tissue); assay type: in vivo; conditions: mouse, po; brain tissue, 5 mg/kg p.o., male Balb/c mice; read-out: Area under curve AUC0-t
readout_label: AUC(0-t) (ng·h/mL)

1) C[C@@]1(O)CC[C@H]2[C@H](CC[C@@H]3[C@@H]2CC[C@@]2(C)[C@H]3[C@@H]3C[C@@H]3[C@@H]2C(=O)Cn2ncnn2)C1 = 677
2) C[C@@H]1C[C@H](C(=O)Cn2nccn2)[C@@]2(C)CC[C@H]3[C@@H](CC[C@@H]4C[C@](C)(O)CC[C@@H]43)[C@H]12 = 657
3) C[C@@H]1C[C@H](C(=O)Cn2cc(C#N)cn2)[C@@]2(C)CC[C@H]3[C@@H](CC[C@@H]4C[C@](C)(O)CC[C@@H]43)[C@H]12 = 4730
4) CC[C@@H]1C[C@H](C(=O)Cn2ccc(C#N)n2)[C@@]2(C)CC[C@H]3[C@@H](CC[C@@H]4C[C@](C)(O)CC[C@@H]43)[C@H]12 = 2130
5) C[C@@H]1C[C@H](C(=O)Cn2ccc(C#N)n2)[C@@]2(C)CC[C@H]3[C@@H](CC[C@@H]4C[C@](C)(O)CC[C@@H]43)[C@H]12 = 2400
6) C[C@@]1(O)CC[C@H]2[C@H](CC[C@@H]3[C@@H]2CC[C@@]2(C)[C@H]3[C@@H]3C[C@@H]3[C@@H]2C(=O)Cn2ccc(C(F)(F)F)n2)C1 = 917
7) C[C@@]1(O)CC[C@H]2[C@H](CC[C@@H]3[C@@H]2CC[C@@]2(C)[C@H]3[C@@H]3C[C@@H]3[C@@H]2C(=O)COc2cnc(C(F)(F)F)nc2)C1 = 2310
8) C[C@@]1(O)CC[C@H]2[C@H](CC[C@@H]3[C@@H]2CC[C@@]2(C)[C@H]3[C@@H]3C[C@@H]3[C@@H]2C(=O)Cn2cc(C(F)(F)F)cn2)C1 = 2300
9) CC[C@@H]1C[C@H](C(=O)Cn2nccn2)[C@@]2(C)CC[C@H]3[C@@H](CC[C@@H]4C[C@](C)(O)CC[C@@H]43)[C@H]12 = 2150
10) CC[C@@H]1C[C@H](C(=O)Cn2cc(C#N)cn2)[C@@]2(C)CC[C@H]3[C@@H](CC[C@@H]4C[C@](C)(O)CC[C@@H]43)[C@H]12 = 1440
